Experiment: human bioavailability comparison study, Tablet Formulation 9 vs co-administered single entity products
Format: in vivo
Conditions: human, in vivo, Treatment C: two units Tablet Formulation 9b; human plasma, fasted
Experimental: The blend is lubricated with magnesium stearate prior to roller compaction. Following roller compaction, the granules are further lubricated with magnesium stearate before compression on a rotary press. Tablet properties of apparent density and solid fraction are determined by gravimetric measurement of the drug product and geometric estimation of size with corresponding component powder measure of true density using helium pycnometry. […]
METRIC: Cmax

State the recorded Cmax for this entry: CC(C)OC(=O)[C@@H](C)NP(=O)(OC[C@H]1O[C@@H](n2ccc(=O)[nH]c2=O)[C@](C)(Cl)[C@@H]1O)Oc1ccccc1 (stereo partly shown) 1250 nM

---

Answer each item with its documented AUC(0-t).
experiment: human bioavailability comparison study, Tablet Formulation 10 vs co-administered single entity products; assay type: in vivo; conditions: human, plasma, oral, Treatment C: one unit Tablet Formulation 10b; human plasma, fasted; read-out: AUC0-24 GM
Numbers only, in µM·h.

[[record]]
compound = "COC(=O)N[C@H](C(=O)N1CCC[C@H]1c1nc(-c2ccc3c(c2)O[C@@H](c2ccccc2)n2c-3cc3cc(-c4c[nH]c([C@@H]5CCCN5C(=O)[C@@H](NC(=O)OC)C(C)C)n4)ccc32)c[nH]1)C(C)C"
val = 1.14


Data request, read-out AUC(0-t), for C=C[C@@H]1C[C@]1(NC(=O)[C@@H]1C[C@@H]2CN1C(=O)[C@H](C(C)(C)C)NC(=O)O[C@@H]1C[C@H]1CCCCCc1nc3ccc(OC)cc3nc1O2)C(=O)NS(=O)(=O)C1CC1 [Compound III, hydrate] 0.2

---

Assay: human bioavailability comparison study, Tablet Formulation 9 vs co-administered single entity products
Type: in vivo
Conditions: human, in vivo, Treatment A: co-administered single entity products, equivalent total dose; human plasma, fasted; read-out: AUC0-last GM
Method: The blend is lubricated with magnesium stearate prior to roller compaction. Following roller compaction, the granules are further lubricated with magnesium stearate before compression on a rotary press. Tablet properties of apparent density and solid fraction are determined by gravimetric measurement of the drug product and geometric estimation of size with corresponding component powder measure of true density using helium pycnometry. […]
METRIC: AUC(0-t) (µM·h)
Give bare numbers, in µM·h.

Query (compound): CC(C)OC(=O)[C@@H](C)NP(=O)(OC[C@H]1O[C@@H](n2ccc(=O)[nH]c2=O)[C@](C)(Cl)[C@@H]1O)Oc1ccccc1 (stereo partly shown) ; field requested: AUC(0-t) 2.52

---

test: human bioavailability comparison study, Tablet Formulation 9 vs co-administered single entity products; assay type: in vivo; details: human, in vivo, Treatment A: co-administered single entity products, equivalent total dose; human plasma, fasted
METRIC: Cmax (nM)
Give bare numbers, in nM.

Give the measured Cmax of CC(C)OC(=O)[C@@H](C)NP(=O)(OC[C@H]1O[C@@H](n2ccc(=O)[nH]c2=O)[C@](C)(Cl)[C@@H]1O)Oc1ccccc1 (stereo partly shown) . 738

---

assay: human bioavailability comparison study, Tablet Formulation 10 vs co-administered single entity products; type: in vivo; settings: human, in vivo, Treatment C: one unit Tablet Formulation 10b; human plasma, fasted
METRIC: AUC(0-inf)

Recorded AUC(0-inf) for CC(C)OC(=O)[C@@H](C)NP(=O)(OC[C@H]1O[C@@H](n2ccc(=O)[nH]c2=O)[C@](C)(Cl)[C@@H]1O)Oc1ccccc1 (stereo partly shown) [Compound I] , please? 1.7 µM·h

---

experiment: human bioavailability comparison study, Tablet Formulation 10 vs co-administered single entity products; type: in vivo; settings: human, in vivo, Treatment A: co-administered single entity products, equivalent total dose; human plasma, fasted
METRIC: Cmax (nM)
Numbers only, in nM.

Need Cmax of CC(C)OC(=O)[C@@H](C)NP(=O)(OC[C@H]1O[C@@H](n2ccc(=O)[nH]c2=O)[C@](C)(Cl)[C@@H]1O)Oc1ccccc1 (stereo partly shown) , thanks. 525

---

experiment: human bioavailability comparison study, Tablet Formulation 10 vs co-administered single entity products; format: in vivo; conditions: human, plasma, oral, Treatment C: one unit Tablet Formulation 10b; human plasma, fasted; read-out: C24 GM
METRIC: concentration at 24 h
State the value, then name its unit.

[[record]]
molecule = "C=C[C@@H]1C[C@]1(NC(=O)[C@@H]1C[C@@H]2CN1C(=O)[C@H](C(C)(C)C)NC(=O)O[C@@H]1C[C@H]1CCCCCc1nc3ccc(OC)cc3nc1O2)C(=O)NS(=O)(=O)C1CC1 [Compound III, hydrate]"
val = "4.11 nM"


Now consider a different molecule.
Return reported concentration at 24 h; argument: `COC(=O)N[C@H](C(=O)N1CCC[C@H]1c1nc(-c2ccc3c(c2)O[C@@H](c2ccccc2)n2c-3cc3cc(-c4c[nH]c([C@@H]5CCCN5C(=O)[C@@H](NC(=O)OC)C(C)C)n4)ccc32)c[nH]1)C(C)C` 29.2 nM

---

Assay: human bioavailability comparison study, Tablet Formulation 10 vs co-administered single entity products
Type: in vivo
Conditions: human, in vivo, Treatment B: one unit Tablet Formulation 10a; human plasma, fasted; read-out: AUC0-24 GM
Protocol: The blend is lubricated with magnesium stearate prior to roller compaction. Following roller compaction, the granules are further lubricated with magnesium stearate before compression on a rotary press. Tablet properties of apparent density and solid fraction are determined by gravimetric measurement of the drug product and geometric estimation of size with corresponding component powder measure of true density using helium pycnometry. […]
METRIC: AUC(0-t) (µM·h)
Give bare numbers, in µM·h.

If you can, please state the reported AUC(0-t) value of CC(C)OC(=O)[C@@H](C)NP(=O)(OC[C@H]1O[C@@H](n2ccc(=O)[nH]c2=O)[C@](C)(Cl)[C@@H]1O)Oc1ccccc1 (stereo partly shown) [Compound I] . 1.58
